Source: ChEMBL document CHEMBL4513216

Tested on: Plasmodium berghei
Assay Comment: Screen against P. berghei liver stage (PbLuc), transformed with Luciferase, at 10uM
Assay type: functional, HepG2
Condition Summary: tested at 10 uM
Among all 69,000 compounds or so, about 8,600 (12%) showed an effect of 50% or more. The list comes from a sample in which strong results are over-represented; it also holds close analogues and randomly drawn compounds.
Reported Endpoint: INHIBITION (%)
Response body: numeric value in %, unit text excluded.

>>> quantitative_readout("CCc1cnc(CN(C)C(=O)Nc2cnn(CC3CCCO3)c2)s1 (configuration not stated)")
51.4
>>> quantitative_readout("Cc1cc(C2CCCN(CCCS(N)(=O)=O)C2)n[nH]1 (configuration not stated)")
16.8
>>> quantitative_readout("COc1ccc(OCCN2CCN(Cc3nccn3C)CC2)cc1")
14.1
>>> quantitative_readout("COCc1nn(C(C)C)c2c1CCN(Cc1ccc(C)s1)C2")
-6.53
>>> quantitative_readout("CCN(Cc1ccc(F)cc1Cl)C1CCS(=O)(=O)C1 (configuration not stated)")
21.6

Challenge: Dear colleague, I am looking for the recorded INHIBITION of the following compound: `CC(=O)N1CCN(CCNS(=O)(=O)c2ccc(F)c(F)c2)CC1`
Response given: -35.1

Challenge: Moving on to `COc1cc(CN2CCCC[C@]3(C)NC(=O)CC[C@H]23)ccc1F`
Response given: 23.9

Challenge: Moving on to CC1CN(Cc2cccc(CN)c2)CCO1 (configuration not stated)
Response given: 59.1

Challenge: Moving on to `N#Cc1cccc(NS(=O)(=O)c2ccc(C(=O)O)cc2F)c1`
Response given: 45.7

Challenge: Moving on to CCCN1CCC(NCc2cccc(CN3CCOC(C)C3)c2)CC1 (configuration not stated)
Response given: 21.1

Challenge: Moving on to COCC1CN(S(=O)(=O)c2ccc(C)cc2)Cc2c1cnn2C (configuration not stated)
Response given: 34.9

Challenge: Moving on to `O=C(O)c1ccccc1-n1cnc(CN2CCc3ccccc3C2)c1`
Response given: 12.8

* * *

Test system: Plasmodium berghei
Assay Comment: Screen against P. berghei liver stage (PbLuc), transformed with Luciferase, at 10uM
Assay type: functional, HepG2
Condition Summary: tested at 10 uM
Out of some 69,000 compounds screened, about 8,600 (12%) showed an effect of 50% or more. This is one part of a sample in which strong results are shown more often than they occur.
Exam item: assign rule met to entries whose INHIBITION is below 40% and rule not met to entries at or above 40%. Note that a value of exactly 40% receives rule not met.

Observe how each entry below is paired with its result.
>>> label_value("COc1ccc(-c2noc(CN3CCN(c4cnccn4)CC3)n2)cc1")
"rule not met"
>>> label_value("CCn1ncc2c1C(COC)N(C(=O)c1ccsc1)CC2 (centres undefined)")
"rule not met"
>>> label_value("CCn1ncc2c1C(COC)N(C(=O)c1cccs1)CC2 (centres undefined)")
"rule not met"
>>> label_value("CCOCC1c2c(cnn2C)CCN1C(=O)c1cc(C)on1 (centres undefined)")
"rule met"
>>> label_value("CCOCC1c2c(ncn2C)CCN1C(=O)c1cnc(C)cn1 (centres undefined)")
"rule not met"

Challenge: For `Cc1cc(CNC(=O)NCc2ccccc2N2CCOCC2)no1` , is the recorded INHIBITION below the cut-off of 40%?
Response given: rule not met

Challenge: Moving on to Cc1ccc(CN2CC(C(=O)Nc3ccccc3)C3(CCOCC3)C2)o1 (centres undefined)
Response given: rule met

Challenge: Moving on to CCOCC1c2c(ncn2C(C)C)CCN1C(=O)C1CC1 (centres undefined)
Response given: rule not met

Challenge: Moving on to CCOCC1c2c(ncn2C(C)C)CCN1C(C)C (centres undefined)
Response given: rule met

Challenge: Moving on to CCOCC1CC2(CCN(C(=O)c3cscn3)CC2)CO1 (centres undefined)
Response given: rule met

* * *

# INHIBITION annotations
System: Plasmodium berghei
Assay Comment: Screen against P. berghei liver stage (PbLuc), transformed with Luciferase, at 10uM
Assay type: functional, HepG2
Condition Summary: tested at 10 uM
In all, about 69,000 compounds went through this assay and about 8,600 (12%) showed an effect of 50% or more. This is one part of a sample in which strong results are shown more often than they occur.
Response body: numeric value in %, unit text excluded.

Sample records with INHIBITION:
>>> quantitative_readout("O=C1NC[C@H]2CN(Cc3ccccn3)CCN12")
-17.2
>>> quantitative_readout("O=C(CN1CCCCC1Cn1cncn1)NCCOc1ccccc1 (configuration not stated)")
0.411
>>> quantitative_readout("O=C(CN1CCCCC1Cn1cccn1)NC1CCN(C2CC2)CC1 (configuration not stated)")
26.8
>>> quantitative_readout("O=C(CN1CCCCC1Cn1cncn1)NCCc1ccc(F)cc1 (configuration not stated)")
43.4
>>> quantitative_readout("Cc1nn(CCCNC(=O)C2CCN(S(C)(=O)=O)CC2)c(Cl)c1Cl")
14.8
>>> quantitative_readout("O=C(CN1CCCC1Cn1cncn1)NCCOc1ccccc1 (configuration not stated)")
36.1

Shift focus to the following entry.
Challenge: Dear colleague, I am looking for the recorded INHIBITION of the following compound: Cc1cc(NC(=O)CCN2CCCCC2Cn2cncn2)no1 (configuration not stated)
Response given: 16.9

* * *

Tested on: Plasmodium berghei
Assay Comment: Screen against P. berghei liver stage (PbLuc), transformed with Luciferase, at 10uM
Type: functional, HepG2
Condition Summary: tested at 10 uM
The whole screen tested about 69,000 compounds, of which about 8,600 (12%) showed an effect of 50% or more. For the sample, strong results were picked, then their nearest neighbours and some compounds at random.
Reported Endpoint: INHIBITION (%)
Response body: numeric value in %, unit text excluded.

Sample records with INHIBITION:
>>> quantitative_readout("Cc1ccc(CN2CCNC(C(=O)NC3CC3)C2)cc1C (centres undefined)")
-2.25
>>> quantitative_readout("Cc1nn(C)cc1-c1cncn1CCN(C)C1CCCC1")
-25.3
>>> quantitative_readout("CC(C)NC(=O)O[C@H]1COCCN(c2nc3ccccc3s2)C1")
-1.12

Challenge: Dear colleague, I am looking for the recorded INHIBITION of the following compound: O=C(NCc1cccnc1)C1CN(c2cnc3ccccc3n2)CCN1 (centres undefined)
Response given: 37.8

Challenge: Moving on to O=C(NCc1ccccn1)C1CN(c2nc3ccccc3s2)CCN1 (centres undefined)
Response given: 58.2

Challenge: Moving on to `COCC(=O)N1CC(c2n[nH]cc2C)C1`
Response given: -41.1

Challenge: Moving on to `Cc1cccnc1NCCNC(=O)C1CCN(C(=O)N(C)C)CC1`
Response given: 50.2

Challenge: Moving on to `CCCNc1ccc(C(=O)NCCc2cccc(OC)c2)cn1`
Response given: 25.3

Challenge: Moving on to `CCS(=O)(=O)N1CC[C@@H]2[C@H](CC1)N(CC(C)C)CCS2(=O)=O`
Response given: -34.6

* * *

Test system: Plasmodium berghei
Assay Comment: Screen against P. berghei liver stage (PbLuc), transformed with Luciferase, at 10uM
Format: functional, HepG2
Condition Summary: tested at 10 uM
The campaign covered roughly 69,000 compounds. About 8,600 (12%) showed an effect of 50% or more. The full list was thinned out, with strong results kept by preference.
Reported Endpoint: INHIBITION
Note: a bare number is incomplete; add the unit.

Challenge: // fetch Plasmodium berghei INHIBITION for `COc1ccc(C(=O)N2CCN(C(=O)CCCc3cn[nH]c3)CC2)cc1`
Response given: 26.4%

Challenge: Moving on to `CS(=O)(=O)N[C@@H]1CN(Cc2ccc3ncccc3c2)C[C@H]1O`
Response given: 23.9%

* * *

# INHIBITION annotations
Test system: Plasmodium berghei
Assay Comment: Screen against P. berghei liver stage (PbLuc), transformed with Luciferase, at 10uM
Format: functional, HepG2
Condition Summary: tested at 10 uM
Among all 69,000 compounds or so, about 8,600 (12%) showed an effect of 50% or more. For the sample, strong results were picked, then their nearest neighbours and some compounds at random.
Response body: numeric value in %, unit text excluded.

Sample records with INHIBITION:
>>> quantitative_readout("CC(=O)NC1CCCN(c2ccc(C#N)cc2C(F)(F)F)C1 (centres undefined)")
-17.9
>>> quantitative_readout("CCc1nc(CN2CCN(C(=O)c3cc(C)nn3C)CC2)cs1")
76.9
>>> quantitative_readout("CC1N(c2cnn(C)c2)C(=O)COC12CCN(c1ccccn1)CC2 (centres undefined)")
39.5
>>> quantitative_readout("O=C(N1CCC(Nc2cccnn2)CC1)C1(c2ccc(F)cc2)CC1")
30.2
>>> quantitative_readout("CCOCCSc1nnc(-c2cn(CC)nc2OCC)n1C")
1.95
>>> quantitative_readout("Cc1noc(CCCNC(=O)N2CCc3ccccc3C2CO)n1 (centres undefined)")
14.4
>>> quantitative_readout("CCN(CC)c1ccc(C(=O)N2C[C@H]3CC[C@@H](C2)N(CCOC)C3)cc1")
25.4
>>> quantitative_readout("COC(=O)Cn1ccc(=O)c2ccc(OC)cc21")
-20
>>> quantitative_readout("O=S(=O)(c1cccnc1)N1C[C@H]2CC[C@@H](C1)N(Cc1ccccc1)C2")
18.6
>>> quantitative_readout("CCOc1ccccc1OC1CCN(C(=O)c2cnns2)CC1")
44.1

Challenge: Dear colleague, I am looking for the recorded INHIBITION of the following compound: CCCC(=O)NC1CCCN(c2nc3ccccc3cc2CO)C1 (centres undefined)
Response given: 7.19

Challenge: Moving on to `CCc1nc(CN2CCCN(C(=O)CCc3ccco3)CC2)cs1`
Response given: 73.1

Challenge: Moving on to `COCCN1C(=O)CC[C@@H]2[C@@H]1CCN2S(=O)(=O)C1CC1`
Response given: 43.9

Challenge: Moving on to `Cc1cccc2nc(-c3nc4c([nH]3)CCCNC4=O)cn12`
Response given: -176

Challenge: Moving on to `CC(C)(C)NC(=O)CNc1ncccn1`
Response given: -1.85

Challenge: Moving on to `CC(C)c1noc(C2CCN(S(=O)(=O)c3cccs3)CC2)n1`
Response given: 17.5
